test: Selectivity index, ratio of CC50 for African green monkey Vero cells to IC50 for chloroquine-resistant Plasmodium falciparum K1; type: toxicity; details: read-out: Ratio CC50/IC50
measurement-label: selectivity ratio

Consider the reported selectivity ratio for these compounds:
[
  {
    "structure-string": "CC(C)(C)c1ccc(S(=O)(=O)n2cc(CCCC(=O)NC3CCCCCC3)c3ccccc32)cc1",
    "measurement-label": "selectivity ratio",
    "result": "> 156"
  },
  {
    "structure-string": "Cc1ccc(S(=O)(=O)n2cc(CCCC(=O)NC34CC5CC(CC(C5)C3)C4)c3ccccc32)cc1",
    "measurement-label": "selectivity ratio",
    "result": "> 63"
  },
  {
    "structure-string": "O=C(Cc1c[nH]c2ccccc12)NCc1cn(CC(=O)Nc2ccc(I)cc2)nn1",
    "measurement-label": "selectivity ratio",
    "result": "> 111"
  },
  {
    "structure-string": "O=C(CCCc1cn(S(=O)(=O)c2ccccc2)c2ccccc12)NC12CC3CC(CC(C3)C1)C2",
    "measurement-label": "selectivity ratio",
    "result": "> 101"
  }
]

Next compound, please.
Input line: GET /values?readout=selectivity ratio&item= `Cc1ccc(S(=O)(=O)n2cc(CCCC(=O)NC3CCCCCC3)c3ccccc32)cc1`
Output line: > 76

====

Readings of selectivity ratio for the listed compounds
test: Selectivity index, ratio of CC50 for African green monkey Vero cells to IC50 for chloroquine-resistant Plasmodium falciparum K1; type: toxicity; conditions: read-out: Ratio CC50/IC50

[
  {
    "compound": "Cc1cc(S(=O)(=O)n2cc(CCCC(=O)NC3CCCCCC3)c3ccccc32)c(C)cc1Cl",
    "selectivity ratio": "> 114"
  },
  {
    "compound": "CC(C)(C)c1ccc(S(=O)(=O)n2cc(CCCC(=O)NC3C4CC5CC(C4)CC3C5)c3ccccc32)cc1 (stereo not given)",
    "selectivity ratio": "> 58"
  },
  {
    "compound": "O=C(CCCc1cn(Cc2ccc(Cl)cc2)c2ccccc12)NC12CC3CC(CC(C3)C1)C2",
    "selectivity ratio": "> 47"
  },
  {
    "compound": "O=C(CCCc1cn(Cc2ccc(F)cc2)c2ccccc12)NC12CC3CC(CC(C3)C1)C2",
    "selectivity ratio": "> 71"
  }
]

Next compound, please.
Input line: GET /values?readout=selectivity ratio&item= `O=C(CCCc1cn(Cc2cn(Cc3ccccc3)nn2)c2ccccc12)NC12CC3CC(CC(C3)C1)C2`
Output line: > 25

====

Readings of CC50 at 72 h for the listed molecules
test: Cytotoxicity against African green monkey Vero cells measured after 3 days by resazurin dye based fluorescence assay; format: cell-based; conditions: chlorocebus sabaeus

Consider the reported CC50 at 72 h for these molecules:
[
  {
    "molecule": "O=C(CCCc1cn(Cc2ccc(Cl)cc2)c2ccccc12)NC12CC3CC(CC(C3)C1)C2",
    "measurement-label": "CC50 at 72 h",
    "result": "> 250 µM"
  },
  {
    "molecule": "CC(C)(C)c1ccc(S(=O)(=O)n2cc(CCCC(=O)NC34CC5CC(CC(C5)C3)C4)c3ccccc32)cc1",
    "measurement-label": "CC50 at 72 h",
    "result": "> 250 µM"
  },
  {
    "molecule": "Cc1ccc(S(=O)(=O)n2cc(CCCC(=O)NC3CCCCCC3)c3ccccc32)cc1",
    "measurement-label": "CC50 at 72 h",
    "result": "> 250 µM"
  },
  {
    "molecule": "O=C(Cc1c[nH]c2ccccc12)NCc1cn(CC(=O)Nc2ccc(I)cc2)nn1",
    "measurement-label": "CC50 at 72 h",
    "result": "> 250 µM"
  }
]

Input line: GET /values?readout=CC50 at 72 h&item= CC(C)(C)c1ccc(S(=O)(=O)n2cc(CCCC(=O)NC3C4CC5CC(C4)CC3C5)c3ccccc32)cc1 (stereo unspecified)
Output line: > 250 µM

Input line: GET /values?readout=CC50 at 72 h&item= `Cc1cc(S(=O)(=O)n2cc(CCCC(=O)NC3CCCCCC3)c3ccccc32)c(C)cc1Cl`
Output line: > 250 µM

====

experiment: Selectivity index, ratio of CC50 for African green monkey Vero cells to IC50 for chloroquine-resistant Plasmodium falciparum K1; format: toxicity; details: read-out: Ratio CC50/IC50
Readings of selectivity ratio for the listed compounds

Consider the reported selectivity ratio for these compounds:
[
  {
    "structure-string": "O=C(CCCc1cn(S(=O)(=O)c2cccc3ccccc23)c2ccccc12)NC1CCCCCC1",
    "measurement-label": "selectivity ratio",
    "result": "> 67"
  },
  {
    "structure-string": "O=C(CCCc1cn(Cc2ccccc2)c2ccccc12)NC12CC3CC(CC(C3)C1)C2",
    "measurement-label": "selectivity ratio",
    "result": "> 59"
  },
  {
    "structure-string": "CC(C)(C)c1ccc(S(=O)(=O)n2cc(CCCC(=O)NC34CC5CC(CC(C5)C3)C4)c3ccccc32)cc1",
    "measurement-label": "selectivity ratio",
    "result": "> 147"
  },
  {
    "structure-string": "Cc1ccc(NC(=O)Cn2cc(Cn3cc(CCCC(=O)NC45CC6CC(CC(C6)C4)C5)c4ccccc43)nn2)cc1C",
    "measurement-label": "selectivity ratio",
    "result": "> 100"
  },
  {
    "structure-string": "O=C(CCCc1cn(CCN2CCOCC2)c2ccccc12)NC1CCCCCC1",
    "measurement-label": "selectivity ratio",
    "result": "> 35"
  }
]

Input line: GET /values?readout=selectivity ratio&item= `Cc1cc(S(=O)(=O)n2cc(CCCC(=O)NC34CC5CC(CC(C5)C3)C4)c3ccccc32)c(C)cc1Cl`
Output line: > 112

Input line: GET /values?readout=selectivity ratio&item= `O=C(CCCc1cn(Cc2ccc(Br)cc2)c2ccccc12)NC12CC3CC(CC(C3)C1)C2`
Output line: > 74

Input line: GET /values?readout=selectivity ratio&item= `O=C(CCCc1cn(S(=O)(=O)c2ccc(F)cc2)c2ccccc12)NC12CC3CC(CC(C3)C1)C2`
Output line: > 67

Input line: GET /values?readout=selectivity ratio&item= `CCCCCCCn1cc(CCCC(=O)NC23CC4CC(CC(C4)C2)C3)c2ccccc21`
Output line: > 70

====

test system: Plasmodium falciparum; assay: Antiplasmodial activity against chloroquine-sensitive Plasmodium falciparum 3D7 infected in human erythrocytes measured after 72 hrs by SYBR green 1 dye based fluorescence assay; type: functional, cell-based; conditions: 3D7, 72 h
Lab note: anything with IC50 below 5 µM is marked 1.0; values at 5 µM or higher are marked 0.0.

Answered cases to consult:
[
  {
    "structure-string": "Cn1cc(CCCC(=O)NC23CC4CC(CC(C4)C2)C3)c2ccccc21",
    "measured-on": "Plasmodium falciparum",
    "category-label": 0.0
  },
  {
    "structure-string": "O=C(Cn1cc(Cn2cc(CCCC(=O)NC34CC5CC(CC(C5)C3)C4)c3ccccc32)nn1)Nc1ccc(F)cc1",
    "measured-on": "Plasmodium falciparum",
    "category-label": 0.0
  },
  {
    "structure-string": "O=C(CCCc1c[nH]c2ccccc12)NC12CC3CC(CC(C3)C1)C2",
    "measured-on": "Plasmodium falciparum",
    "category-label": 0.0
  },
  {
    "structure-string": "Cc1ccc(S(=O)(=O)n2cc(CCCC(=O)NC34CC5CC(CC(C5)C3)C4)c3ccccc32)cc1",
    "measured-on": "Plasmodium falciparum",
    "category-label": 1.0
  },
  {
    "structure-string": "C=CCn1cc(CCCC(=O)NC2CCCCCC2)c2ccccc21",
    "measured-on": "Plasmodium falciparum",
    "category-label": 0.0
  },
  {
    "structure-string": "O=C(CCCc1cn(S(=O)(=O)c2cccc3ccccc23)c2ccccc12)NC1CCCCCC1",
    "measured-on": "Plasmodium falciparum",
    "category-label": 1.0
  },
  {
    "structure-string": "Cc1cc(S(=O)(=O)n2cc(CCCC(=O)NC3CCCCCC3)c3ccccc32)c(C)cc1Cl",
    "measured-on": "Plasmodium falciparum",
    "category-label": 1.0
  },
  {
    "structure-string": "O=C(Cc1c[nH]c2ccccc12)NCc1cn(CC(=O)Nc2ccc(F)c(Cl)c2)nn1",
    "measured-on": "Plasmodium falciparum",
    "category-label": 0.0
  }
]

Input line: Lab note: confirm whether the reported IC50 for this molecule is below 5 µM, equality not counting. molecule: `CC(C)(C)c1ccc(S(=O)(=O)n2cc(CCCC(=O)NC34CC5CC(CC(C5)C3)C4)c3ccccc32)cc1`
Output line: 1.0
